Reference for the values: patent US12187723B2

Target: human TLR9 (Homo sapiens)
Sequence (Q9NR96 26-1032): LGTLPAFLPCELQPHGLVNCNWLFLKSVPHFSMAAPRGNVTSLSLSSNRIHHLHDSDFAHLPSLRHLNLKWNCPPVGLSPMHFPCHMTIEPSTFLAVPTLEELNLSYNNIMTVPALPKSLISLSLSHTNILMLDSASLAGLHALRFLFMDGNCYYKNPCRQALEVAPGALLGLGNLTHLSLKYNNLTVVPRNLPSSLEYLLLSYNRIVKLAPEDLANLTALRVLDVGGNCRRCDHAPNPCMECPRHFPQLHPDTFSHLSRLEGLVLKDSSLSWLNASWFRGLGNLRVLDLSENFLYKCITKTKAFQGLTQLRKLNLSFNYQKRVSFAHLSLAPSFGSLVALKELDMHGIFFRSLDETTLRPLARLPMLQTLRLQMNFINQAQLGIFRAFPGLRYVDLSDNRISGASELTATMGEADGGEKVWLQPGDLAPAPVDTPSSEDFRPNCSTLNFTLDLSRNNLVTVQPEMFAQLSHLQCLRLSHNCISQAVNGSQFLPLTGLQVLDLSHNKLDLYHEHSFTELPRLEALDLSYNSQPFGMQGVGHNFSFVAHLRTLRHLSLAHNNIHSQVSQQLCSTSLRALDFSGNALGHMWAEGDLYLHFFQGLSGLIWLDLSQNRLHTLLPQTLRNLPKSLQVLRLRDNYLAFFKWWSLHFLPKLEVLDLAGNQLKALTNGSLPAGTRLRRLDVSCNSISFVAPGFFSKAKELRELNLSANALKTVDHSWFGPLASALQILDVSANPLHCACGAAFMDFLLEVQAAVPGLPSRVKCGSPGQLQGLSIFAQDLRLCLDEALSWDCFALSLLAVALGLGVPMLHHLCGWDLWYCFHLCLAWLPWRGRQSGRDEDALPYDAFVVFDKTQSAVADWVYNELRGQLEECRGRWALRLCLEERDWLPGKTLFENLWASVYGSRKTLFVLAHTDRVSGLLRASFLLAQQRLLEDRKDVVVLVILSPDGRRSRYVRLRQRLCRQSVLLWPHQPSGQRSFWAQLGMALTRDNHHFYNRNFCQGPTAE
Assay: TLR9 inhibition reporter assay (HEK-Blue SEAP)
Settings: HEK-Blue cells overexpressing human TLR9, ODN2006 5 nM, 22 hour incubation
test-readout: IC50 (µM)
Number only, in µM; omit the unit.

INSERT INTO assay_data (compound, unit_spec, test_value) VALUES
  ('CCc1cc2c(cc1-c1cc(OC)c3ncnn3c1)[nH]c(=O)n2[C@@H]1CCCN(C)C1', 'µM', 7.34),
  ('COCCN1CCC[C@@H](n2c(=O)[nH]c3cc(-c4cc(C)c5ncnn5c4)c(C)cc32)C1', 'µM', 19.1);

query: Value wanted: IC50 (human TLR9 (Homo sapiens)) of entry COc1cc(-c2cc3[nH]c(=O)n(C4CCC(N5CCCC5)CC4)c3cc2C(C)C)cn2ncnc12 (centres unmarked) [Example 231]
result: 15.1

query: Continue with Cc1c(-c2cc3[nH]c(=O)n(C4CCC(N5CCC6(CC5)COC6)CC4)c3cc2C(C)C)cn2ncnc2c1C (single isomer, unassigned) [Example 283]
result: 5.34

query: Continue with COc1cc(-c2ccc3c(c2)[nH]c(=O)n3C2CCN(C3CCOC3)CC2)cn2ncnc12 (centres unmarked)
result: 3.88

query: Continue with CCc1cc2c(cc1-c1cc(OC)c3ncnn3c1)[nH]c(=O)n2[C@@H]1CCCN(CC2CC2)C1
result: 7.94

query: Continue with COc1cc(-c2cc3[nH]c(=O)n([C@@H]4CCCN(CC5CCC5)C4)c3cc2C(C)C)cn2ncnc12
result: 6.46

query: Continue with CCC(CC)CN1CCC[C@@H](n2c(=O)[nH]c3cc(-c4cc(C)c5ncnn5c4)c(C)cc32)C1
result: 3.03

query: Continue with Cc1c(-c2cc3[nH]c(=O)n([C@@H]4CCCN(C(C)C)C4)c3cc2C(C)C)cn2ncnc2c1C
result: 14.3

query: Continue with Cc1cc2c(cc1-c1cc(C)c3ncnn3c1)[nH]c(=O)n2[C@@H]1CCCN(CC2CC2)C1
result: 10.1

query: Continue with COc1cc(-c2cc3[nH]c(=O)n(C4CCC(N5C[C@@H](F)[C@@H](F)C5)CC4)c3cc2C(C)C)cn2ncnc12 (single isomer, unassigned) [Example 292]
result: 28.9
